All values here come from patent US20250382355A1.

Recorded binning response, one value per entry.
- TARGET_OF_ASSAY: Biotinylated CoV2 Spike ECD PreS-AVI protein (SARS-CoV-2, UniProt P0DTC2 14-1208)
- TEST_PROTOCOL: Octet binning; competitor 19B8

Solved entries (count: 4):
- BINDER: "19B8 VHH-Fc (Fc fusion) QVQLVESGGGLVQAGGSLRLSCAASGRTFTNYAMGWFRQAPGKEREFVAAISWSGGGTNYADSVKGRFTISRDNAKNTVYLQMNSPKPEDTAVYYCATTLGYYGSSSRLYEYWGQGTQVTVSS"
  READOUT_VALUE: 0.08
- BINDER: "14F3 VHH-Fc (Fc fusion) QVQLVESGGGLVQAGGSLRLSCAASGRTSSIYGVGWFRQAPGKERELVALITWSGGTTYYSDSVKGRFTISKDNAKNTVFLQMNNLKPEDTAIYYCAVDTYSMTMSARDYEYWGQGTQVTVSS"
  READOUT_VALUE: 0.46
- BINDER: "5G11 VHH-Fc (Fc fusion) QVQLVESGGGLVQAGGSLRLSCAASGRTFSIYAVGWFRQAPGKERDFVAGITWSGGTTYYSDSVKGRFTISRDNAKNTVYLQMNNLKPEDTAIYYCAVDTYSMTLSARSYDYWGQGTQVTVSS"
  READOUT_VALUE: 0.4
- BINDER: "16H7 VHH-Fc (Fc fusion) QVQLVESGGGLVQAGGSLRLSCAASGRAFSKDTMGWFRQAPGKEREFVAVISASGDSTYYADFVKGRFTISRDNAKNTEYLQMNSLKPEDTAVYHCAADGARAYYSINAHRYSWAYNYWGQGTQVTVSS"
  READOUT_VALUE: 0.19

Please turn your attention to the following entry.
input: Recorded binning response for 20D11 VHH-Fc (Fc fusion) QVQLVESGGGLVQAGGSLRLSCAASGRTSSIYSVGWFRQAPGKERELVAGITWSGGTTYYSDSVKGRFTISRDNAKNTVNLQMNNLKPEDTAIYYCAVDRYSMTMSARDYDYWGQGTQVTVSS , please?
output: 0.43
